system: SKOV3; test: Primary qHTS to identify gynecologic anti-cancer compounds using libraries of approved drugs and bioactive compounds (AID 1345084); settings: Gynecologic cancer cell panel viability, ATPlite luminescence, 48 h; series mostly up to 57.5 µM; note: % is set by controls: 0 for no effect and ±100 for the full control effect; nearly all actives have a fitted effect of over 55% in size
Records with an inconclusive call do not appear. Calls of active or inactive are those of the source. Calls come from the whole dose curve; as a rule, active = well fitted cell-killing curve with a large enough effect; inconclusive = small, poorly fitted or top-dose-only effect, or effect the other way; inactive = flat fitted curve, though single readings scatter.
quantity: activity change, negative = cytotoxicity

compound	study-system	data-value
C[C@@H]1CC[C@]2(C(=O)O)CC[C@]3(C(=O)O)C(=CCC4[C@@]5(C)CC[C@H](O[C@@H]6O[C@@H](C)[C@H](O[C@@H]7O[C@H](CO)[C@@H](O)[C@H](O)[C@H]7O)[C@@H](O)[C@H]6O)C(C)(C)C5CC[C@]43C)C2[C@H]1C (stereo partly specified)	SKOV3	inactive
CC1OC(OC2C(O)C(C(=O)O)OC(OC3CCC4(C)C(CCC5(C)C4C=CC4=C6CC(C)(C)CC(O)C6(C)CCC45C)C3(C)C)C2OC2OCC(O)C(O)C2O)C(O)C(O)C1O (stereo unspecified)	SKOV3	1.68% [at 11.6 µM] (inactive)
C=CC(C)(O)CO[C@@H]1O[C@H](CO)[C@@H](O)[C@H](O)[C@H]1O (stereo partly specified)	SKOV3	inactive
C=C1CC2C3(C)C(O)CC(=O)C(C)(C)C3C(OC(C)=O)C(OC(C)=O)C2(C)C2C(=O)OC(C)(C(=O)OC)C(=O)C12C (stereo unspecified)	SKOV3	inactive
CCOc1ccc(C(Nc2ccccn2)c2ccc3ccc(C)nc3c2O)cc1C (stereo unspecified)	SKOV3	inactive
CC(C)(O)/C=C1/C(=O)C(C)(C)C(=O)C(C)(C)C1(O)O[C@@H]1O[C@H](COC(=O)c2cc(O)c(O)c(O)c2)[C@@H](O)[C@H](O)[C@H]1O (stereo partly specified)	SKOV3	inactive

----------
test system: CP297; test: qHTS profiling for inhibitors of Plasmodium falciparum proliferation (AID 504749); note: nearly all actives have a fitted effect of over 60% in size; conditions: P. falciparum in erythrocytes, SYBR Green DNA, 72 h; series mostly up to 28.7 µM
Records with an inconclusive call do not appear. The source made the active and inactive calls. Calls come from the whole dose curve; as a rule, active = well fitted inhibition curve with a large enough effect; inconclusive = small, poorly fitted or top-dose-only effect; inactive = flat fitted curve, though single readings scatter.
Outcomes: true (1) (active), false (0) (inactive)

compound	label-class
O=C(O)CN(CCN(CC(=O)O)CC(=O)O)CC(=O)O	false (0)
Nc1ncnc2c1ncn2[C@@H]1O[C@H](COP(=O)(O)OP(=O)(O)OP(=O)(O)O)[C@@H](O)[C@H]1O	false (0)
C#CCOc1ccc2c(C)cc(=O)oc2c1	false (0)
Cc1ccccc1	false (0)
CCCCCCCCCCCCCC[n+]1ccc(C)cc1	true (1)
Oc1cc(O)c2c(c1)OC(c1ccc(O)c(O)c1)C(O)C2 (stereo unspecified)	false (0)

----------
molecular target: Peroxisome proliferator-activated receptor alpha (Homo sapiens) (UniProt Q07869); experiment: qHTS assay for small molecule agonists of the peroxisome proliferator-activated receptor alpha (PPARalpha) signaling pathway (AID 651778); settings: PathHunter PPARalpha complementation, chemiluminescence, 6 h; active compounds read high; note: % of control where 0% means no effect
Sequence (Q07869 whole entry, looked up): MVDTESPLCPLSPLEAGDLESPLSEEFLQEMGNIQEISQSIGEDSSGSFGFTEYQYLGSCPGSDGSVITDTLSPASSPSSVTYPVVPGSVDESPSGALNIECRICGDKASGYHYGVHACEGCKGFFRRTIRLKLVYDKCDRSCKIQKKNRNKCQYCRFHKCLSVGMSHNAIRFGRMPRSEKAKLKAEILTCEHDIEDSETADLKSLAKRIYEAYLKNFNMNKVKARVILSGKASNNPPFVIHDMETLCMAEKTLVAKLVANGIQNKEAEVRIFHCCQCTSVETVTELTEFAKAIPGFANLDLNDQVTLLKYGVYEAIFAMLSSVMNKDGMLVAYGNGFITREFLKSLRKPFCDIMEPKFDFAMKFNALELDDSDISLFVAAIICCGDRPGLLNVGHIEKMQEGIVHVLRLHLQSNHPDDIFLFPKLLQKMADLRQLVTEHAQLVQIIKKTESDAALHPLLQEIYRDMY
Calls of active or inactive are those of the source. Calls come from the whole dose curve; as a rule, active = well fitted activation curve with a large enough effect; inconclusive = small, poorly fitted or top-dose-only effect; inactive = flat fitted curve, though single readings scatter.
The entries below come with measured max response values attached.
quantity: max response

molecule	quantity	data-value
Nc1ccn([C@H]2CS[C@@H](CO)O2)c(=O)n1	max response	-3.53% (inactive)
CC(C)(C)NC(=O)[C@@H]1C[C@@H]2CCCC[C@@H]2CN1C[C@@H](O)[C@H](Cc1ccccc1)NC(=O)[C@H](CC(N)=O)NC(=O)c1ccc2ccccc2n1	max response	-0.457% (inactive)
CC1=CCC(C(C)(C)O)CC1 (configuration not stated)	max response	-2.04% (inactive)
CC(C)=O	max response	-7.67% (inactive)
C[C@H]1C[C@H]2[C@@H]3CCC4=CC(=O)C=C[C@]4(C)[C@@]3(F)[C@@H](O)C[C@]2(C)[C@@]1(O)C(=O)CO	max response	-0.118% (inactive)
O=CCCCC=O	max response	-1.75% (inactive)
O=C(O)CCC(=O)C(=O)O	max response	4.88% (inactive)
